SUBJECT OF TEST: Ataxin-2 (Homo sapiens) (UniProt Q99700)
Sequence (Q99700 whole entry): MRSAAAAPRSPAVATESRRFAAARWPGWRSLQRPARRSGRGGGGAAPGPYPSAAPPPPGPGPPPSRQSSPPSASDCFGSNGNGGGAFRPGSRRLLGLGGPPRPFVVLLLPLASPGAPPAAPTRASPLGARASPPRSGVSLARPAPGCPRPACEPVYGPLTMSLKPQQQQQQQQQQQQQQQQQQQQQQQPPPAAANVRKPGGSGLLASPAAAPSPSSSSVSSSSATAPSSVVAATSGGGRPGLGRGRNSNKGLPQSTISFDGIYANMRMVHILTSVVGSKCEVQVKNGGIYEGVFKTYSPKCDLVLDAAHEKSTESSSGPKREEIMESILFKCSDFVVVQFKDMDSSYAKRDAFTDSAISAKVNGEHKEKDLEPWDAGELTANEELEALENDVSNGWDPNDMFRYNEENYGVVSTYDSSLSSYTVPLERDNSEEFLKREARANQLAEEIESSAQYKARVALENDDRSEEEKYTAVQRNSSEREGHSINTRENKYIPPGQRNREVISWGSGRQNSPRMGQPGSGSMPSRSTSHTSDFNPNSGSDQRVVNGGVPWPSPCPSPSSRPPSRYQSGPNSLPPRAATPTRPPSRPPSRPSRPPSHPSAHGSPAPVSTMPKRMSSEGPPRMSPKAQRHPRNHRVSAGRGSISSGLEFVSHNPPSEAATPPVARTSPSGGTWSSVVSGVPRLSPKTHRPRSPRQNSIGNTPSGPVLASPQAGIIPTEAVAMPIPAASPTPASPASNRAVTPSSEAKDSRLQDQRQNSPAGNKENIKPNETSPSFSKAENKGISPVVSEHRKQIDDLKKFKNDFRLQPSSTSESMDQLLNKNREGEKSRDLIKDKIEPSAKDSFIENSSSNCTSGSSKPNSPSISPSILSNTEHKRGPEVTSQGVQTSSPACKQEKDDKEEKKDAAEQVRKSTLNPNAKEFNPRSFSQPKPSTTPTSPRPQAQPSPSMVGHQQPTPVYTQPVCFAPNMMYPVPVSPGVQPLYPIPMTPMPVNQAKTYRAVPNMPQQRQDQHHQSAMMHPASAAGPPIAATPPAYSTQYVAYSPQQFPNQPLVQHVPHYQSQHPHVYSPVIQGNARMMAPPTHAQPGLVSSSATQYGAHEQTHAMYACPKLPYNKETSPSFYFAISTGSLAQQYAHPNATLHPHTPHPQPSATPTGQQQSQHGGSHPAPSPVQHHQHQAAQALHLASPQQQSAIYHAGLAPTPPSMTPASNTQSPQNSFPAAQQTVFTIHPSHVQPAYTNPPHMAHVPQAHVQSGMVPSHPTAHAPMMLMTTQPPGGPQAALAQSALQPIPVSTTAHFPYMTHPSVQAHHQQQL
EXPERIMENT SUMMARY: qHTS for Inhibitors of ATXN expression.
Type: functional
The campaign covered roughly 400,000 compounds. About 2,100 (0.53%) were called active. Another 14% or so got no clear call; they are omitted. The rule behind the calls is not given here. Many of the other results were omitted from the sample, so actives are more common in it than they were.
Labels: True = active, False = inactive

MOLECULE	LABEL VALUE
CCCCCC[n+]1ccccc1C=Cc1ccc(N(C)C)cc1	True
CCCN(CCC)c1ccc(/C=C/c2ccc3cc(OCC)ccc3n2)cc1	False
O=S(=O)(c1ccccc1)N(CC(F)(F)F)c1ccc(C(O)(C(F)(F)F)C(F)(F)F)cc1	True
Cc1ccccc1CNc1ccc(C(CC(N)=O)NC(=O)c2ccc(Br)cc2)cc1[N+](=O)[O-] (centres undefined)	True
CCOc1ccc(NC(=O)Cc2cccc3ccccc23)c([N+](=O)[O-])c1	False
COCCNC(=O)/C(=C/c1ccccc1Cl)c1ccccc1	False
CN(C)c1ccc(/C=C/c2nc3ccccc3s2)cc1	False
CN(C)/C=C1\C=C2C(=O)c3ccccc3N2C1=O	False
NC(=O)CC(NC(=O)c1ccc(Br)cc1)c1ccc(NCc2ccc(F)cc2)c([N+](=O)[O-])c1 (centres undefined)	True
COc1cc(/C=C(\C#N)c2nc3cc(C)ccc3[nH]2)ccc1OC(C)C	False
COc1ccc(C2Nc3cc(OC)ccc3-n3cccc32)cc1 (centres undefined)	False
CN(C)c1ccc(C=Cc2cnccn2)cc1	False
CCOCCCNC(=O)c1c(N)n(-c2ccc3c(c2)OCO3)c2nc3ccccc3nc12	False
O=C(O)c1cc2cccc(S(=O)(=O)N3CCCCC3)c2cc1O	False

Where do these numbers come from? They come from ChEMBL document CHEMBL1201862.
